Target: T1, Bud14, P27637
T1 sequence (P27637 247-328, looked up): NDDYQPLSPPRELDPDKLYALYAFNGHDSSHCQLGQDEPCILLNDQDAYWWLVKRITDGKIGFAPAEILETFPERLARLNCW
Assay: SPOT array
Conditions: median of control spots 956
Reported SPOT intensity values for the following binders.
Keep it simple and answer with nothing but the number.

{"binder": "RTRRRPPPPPIPSTQ", "test_result": 16}
{"binder": "APKREAPKPPANTSP", "test_result": 0}
{"binder": "IHTRRPSSTSQYLIR", "test_result": 4}
{"binder": "SAPDIPPRSPNRNAH", "test_result": 2}
{"binder": "TPTSGPPLLPPRNTM", "test_result": 0}
{"binder": "TYNRTAFQIPGDQSI", "test_result": 0}

Now for a further binder.
Need SPOT intensity of ERPKRRAPPPVPKKP , thanks.
0
